Target: Aβ42 (Homo sapiens, UniProt P05067)
Sequence (P05067 672-713): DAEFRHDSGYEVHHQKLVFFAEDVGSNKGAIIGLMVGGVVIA
Test: biochemical
Type: binding
No end group written: not given here.
readoutType: Kd
Just the number plus its unit, please.

Task item: Requested read-out: Kd. Entry: HGVVFLHVTYV [Spike1058]
Reply: 0.0826 µM
